Would you mind telling me the reported EC50 of each entry?
# target: T1, human Claudin 18.2 (hCLDN18.2) (human, UniProt P56856-2 1-261)
# T1 construct: whole, on cells; also called CLDN18A2; claudin 18 splice variant 2
# assayNotes: FACS, PDX-hCLDN18.2 gastric cancer tumor tissue-derived cells
Numbers only, in nM.

Reference set (3 entries):
hu299B2-S32A-2 (antibody, V domains shown, also called humanized antibody hu299B2-S32A) VH: QVQLVQSGAEVKKPGASVKVSCKASGYIFTNYWIHWVRQAPGQGLEWMGRIYPGTGNTYYNEKFTGRVTMTRDTSTSTVYMELSSLRSEDTAVYYCAREGYGKGNSMDYWGQGTTVTVSS VL: DIVMTQSPDSLAVSLGERATMNCKSSQSLLNAGNQKNYLTWYQQKPGQPPKLLFYWASTRESGVPDRFSGSGSGTDFTLTISSLQAEDVAVYHCQNAYYYPYTFGGGTKLEIK : 24.6
hu299B2-S32A-4 (antibody, V domains shown, also called humanized antibody hu299B2-S32A) VH: QVQLVQSGAEVKKPGASVKVSCKTSGYIFTNYWIHWVRQAPGQGLEWMGRIYPGTGNTYYNEKFTGRVTLTADTSTSTVYMELSSLRSEDTAVYYCSREGYGKGNSMDYWGQGTTVTVSS VL: DIVMTQSPDSLAVSLGERATINCKSSQSLLNAGNQKNYLTWYQQKPGQPPKLLIYWASTRESGVPDRFSGSGSGTDFTLTISSLQAEDVAVYYCQNAYYYPYTFGGGTKLEIK : 29.3
hu299B2-S32A-1 (antibody, V domains shown, also called humanized antibody hu299B2-S32A) VH: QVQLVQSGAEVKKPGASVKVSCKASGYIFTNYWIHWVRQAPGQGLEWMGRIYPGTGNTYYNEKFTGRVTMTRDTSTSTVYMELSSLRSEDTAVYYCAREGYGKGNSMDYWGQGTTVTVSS VL: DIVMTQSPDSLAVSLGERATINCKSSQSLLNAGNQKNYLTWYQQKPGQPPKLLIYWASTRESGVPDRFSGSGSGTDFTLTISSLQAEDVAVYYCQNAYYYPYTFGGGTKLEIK : 29.7

Attention now turns to another entry.
What measured EC50 goes with hu299B2-S32A-3 (antibody, V domains shown, also called humanized antibody hu299B2-S32A) VH: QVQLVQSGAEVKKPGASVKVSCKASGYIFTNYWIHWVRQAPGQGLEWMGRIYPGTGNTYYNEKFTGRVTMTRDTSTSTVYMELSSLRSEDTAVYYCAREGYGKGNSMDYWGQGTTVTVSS VL: DIVMTQSPDSLAVSLGERVTMNCKSSQSLLNAGNQKNYLTWYQQKPGQPPKLLFYWASTRESGVPDRFSGSGSGTDFTLTISSVQAEDVAVYHCQNAYYYPYTFGGGTKLEIK ?
26.1
